FYI, the data here is from PubChem BioAssay AID1918932.

Here the recorded viability, T/C is given for each entry.
- Test system: 171881-019-R-J1-PDC complex spheroid viability;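 note: spheroids exposed to agents for 7 days after 3 days growth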
- Assay notes: Anticancer human tumor 171881-019-R-J1-PDC patient-derived invasive breast carcinoma cell line growth inhibition
- Condition details: second compound 1 µM; first compound 1 µM; stronger effect = lower value
Parameter: viability, T/C

compound="CC1(C)CCC(CN2CCN(c3ccc(C(=O)NS(=O)(=O)c4ccc(NCC5CCOCC5)c([N+](=O)[O-])c4)c(Oc4cnc5[nH]ccc5c4)c3)CC2)=C(c2ccc(Cl)cc2)C1 + NC1CC1c1ccc(-c2cccc(O)c2)cc1" system_name="171881-019-R-J1-PDC complex spheroid viability" test_result=64.2%
compound="O=C(C=Cn1cnc(-c2cc(C(F)(F)F)cc(C(F)(F)F)c2)n1)NNc1cnccn1 + NC1CCC(NC2CC2c2ccccc2)CC1" system_name="171881-019-R-J1-PDC complex spheroid viability" test_result=4.14%
compound="COc1ccc([C@@H](O)c2cc(-c3ncnc4cc(N5CCOCC5)ccc34)c(F)cc2Cl)nn1 + NC1CC1c1ccc(-c2cccc(O)c2)cc1" system_name="171881-019-R-J1-PDC complex spheroid viability" test_result=39.2%
compound="O=C(C=Cn1cnc(-c2cc(C(F)(F)F)cc(C(F)(F)F)c2)n1)NNc1cnccn1 + NC1CC1c1ccc(-c2cccc(O)c2)cc1" system_name="171881-019-R-J1-PDC complex spheroid viability" test_result=1.82%
compound="O=C(c1cc(Cc2n[nH]c(=O)c3ccccc23)ccc1F)N1CCN(C(=O)C2CC2)CC1 + NC1CC1c1ccc(-c2cccc(O)c2)cc1" system_name="171881-019-R-J1-PDC complex spheroid viability" test_result=89.5%
compound="CC1COCCN1c1cc(-c2ccnn2C)c2ccnc(-c3ccn[nH]3)c2n1 (centres undefined) + NC1CC1c1ccc(-c2cccc(O)c2)cc1" system_name="171881-019-R-J1-PDC complex spheroid viability" test_result=5.67%
compound="CC(C)c1c(-c2ccccc2)nc2c(C#N)c[nH]n2c1=O + NC1CCC(NC2CC2c2ccccc2)CC1" system_name="171881-019-R-J1-PDC complex spheroid viability" test_result=100%
compound="COc1cc(Nc2ncc3c(n2)-c2ccc(Cl)cc2C(c2c(F)cccc2OC)=NC3)ccc1C(=O)O + NC1CCC(NC2CC2c2ccccc2)CC1" system_name="171881-019-R-J1-PDC complex spheroid viability" test_result=62.2%
compound="Nc1ncn(C2CC(O)C(CO)O2)c(=O)n1 (centres undefined) + NC1CCC(NC2CC2c2ccccc2)CC1" system_name="171881-019-R-J1-PDC complex spheroid viability" test_result=97.1%
compound="Nc1ncn(C2CC(O)C(CO)O2)c(=O)n1 (centres undefined) + NC1CC1c1ccc(-c2cccc(O)c2)cc1" system_name="171881-019-R-J1-PDC complex spheroid viability" test_result=85.1%
compound="CC1(C)CCC(CN2CCN(c3ccc(C(=O)NS(=O)(=O)c4ccc(NCC5CCOCC5)c([N+](=O)[O-])c4)c(Oc4cnc5[nH]ccc5c4)c3)CC2)=C(c2ccc(Cl)cc2)C1 + NC1CCC(NC2CC2c2ccccc2)CC1" system_name="171881-019-R-J1-PDC complex spheroid viability" test_result=74.3%
compound="CC(C)c1c(-c2ccccc2)nc2c(C#N)c[nH]n2c1=O + NC1CC1c1ccc(-c2cccc(O)c2)cc1" system_name="171881-019-R-J1-PDC complex spheroid viability" test_result=89.5%
compound="CC1COCCN1c1cc(-c2ccnn2C)c2ccnc(-c3ccn[nH]3)c2n1 (centres undefined) + NC1CCC(NC2CC2c2ccccc2)CC1" system_name="171881-019-R-J1-PDC complex spheroid viability" test_result=7.53%
compound="COc1ccc([C@@H](O)c2cc(-c3ncnc4cc(N5CCOCC5)ccc34)c(F)cc2Cl)nn1 + NC1CCC(NC2CC2c2ccccc2)CC1" system_name="171881-019-R-J1-PDC complex spheroid viability" test_result=52.3%
